# Tested on: RAW 264.7 cells
# assay.procedure: Quantitative cell-permeability of FITC-labeled aMTD- or rPeptide-fused CRA recombinant proteins by flow cytometry
# Assay type: cell-based
# measurement.conditions: cell-permeability of aMTD-fused CRA recombinant protein relative to reference CPP (C: MTD85)
measure.name: Relative Ratio (Fold) C
Note: unit Fold is implicit; provide only the numeric part.

{"columns": ["substance", "Relative Ratio (Fold) C"],
 "data": [
  ["908 (VALALAPVVVAP; Advanced Macromolecule Transduction Domain (aMTD) Sequences for Improvement of Cell-Permeability) [compound 908]", 50.9],
  ["877 (VAIIAVPAVVAP; Advanced Macromolecule Transduction Domain (aMTD) Sequences for Improvement of Cell-Permeability) [compound 877]", 4.7],
  ["787 (AVALVPVIVAAP; Advanced Macromolecule Transduction Domain (aMTD) Sequences for Improvement of Cell-Permeability) [compound 787]", 9.9],
  ["747 (VALLAIAPALAP; Advanced Macromolecule Transduction Domain (aMTD) Sequences for Improvement of Cell-Permeability) [compound 747]", 7.5],
  ["501 (VIVALAVPALAP; Advanced Macromolecule Transduction Domain (aMTD) Sequences for Improvement of Cell-Permeability) [compound 501]", 7.3]
]}

// Relative Ratio (Fold) C value for 563 (ALAVIVVPALAP; Advanced Macromolecule Transduction Domain (aMTD) Sequences for Improvement of Cell-Permeability) [compound 563] : 15.9

// Relative Ratio (Fold) C value for 826 (LVALAAPIIAVP; Advanced Macromolecule Transduction Domain (aMTD) Sequences for Improvement of Cell-Permeability) [compound 826] : 16.6

// Relative Ratio (Fold) C value for 363 (AVLAVAPALIVP; Advanced Macromolecule Transduction Domain (aMTD) Sequences for Improvement of Cell-Permeability) [compound 363] : 4.9

// Relative Ratio (Fold) C value for 165 (ALAVPVALAIVP; Advanced Macromolecule Transduction Domain (aMTD) Sequences for Improvement of Cell-Permeability) [compound 165] : 6.7

// Relative Ratio (Fold) C value for 224 (ILAAVPIALAAP; Advanced Macromolecule Transduction Domain (aMTD) Sequences for Improvement of Cell-Permeability) [compound 224] : 5.3

// Relative Ratio (Fold) C value for 481 (AIAIAIVPVALP; Advanced Macromolecule Transduction Domain (aMTD) Sequences for Improvement of Cell-Permeability) [compound 481] : 11.6

// Relative Ratio (Fold) C value for 825 (IVAVIVAPAVAP; Advanced Macromolecule Transduction Domain (aMTD) Sequences for Improvement of Cell-Permeability) [compound 825] : 23.6

// Relative Ratio (Fold) C value for 503 (AAIIIVLPAALP; Advanced Macromolecule Transduction Domain (aMTD) Sequences for Improvement of Cell-Permeability) [compound 503] : 5.9
